B1: EHEE_rd2_1257 (parent)
chain: EEERTFTNEEEARKAKKEAEKRGLRVTVTKDGTTWRVRIG

Variants of: B1
Assay: folding stability dG (cDNA display proteolysis); higher = more stable
Details: PBS, room temperature
Range-based classes on measured folding stability dG: c1 (below 1 kcal/mol), c2 (1 kcal/mol to below 2 kcal/mol), c3 (2 kcal/mol or more)

R36A	c1
R25Q	c2
E1V	c3

# bin label for "K16I"
c3

# bin label for "R25E"
c2

# bin label for "V37D"
c1

# bin label for "E1Y"
c3

# bin label for "V37P"
c1

# bin label for "R25K"
c3

# bin label for "K16Q"
c3

# bin label for "E20Y"
c2

# bin label for "E11Y"
c1

# bin label for "E3K"
c1

# bin label for "V26Y"
c1

# bin label for "K21D"
c3

# bin label for "G23Y"
c1

# bin label for "D31L"
c2
